system: OVCAR-8; assay: NCI tumour cell line growth inhibition, 48 h
Calls of active or inactive are those of the source. No stated cut-off is given here; in the data, active = GI50 up to about 1.1 µM and inactive = higher.
Hi! Could you answer with just one of these? 1 (active), -1 (inactive)

• CCOc1ccc(/C=C\c2cc(OC)c(OC)c(OC)c2)cc1 = 1
• COc1cc([C@H]2Oc3c(OC)cc(CCCO)cc3[C@@H]2CO)ccc1O [DIHYDRODEHYDRODICONIFERY ALCOHOL] = -1
• CN(C)CC1CCCCCCCCCCCCC(CN(C)C)C1=O (stereo not given) = -1
• CCCN1C(=O)CNC(=O)c2[nH]cnc21 = -1

Here's the next entry for you.
query: Please state the recorded outcome for this molecule: "CC(=O)Nc1ccccc1-c1nc2ccccc2nc1C"
result: -1

----------
GI50: recorded values
tested on: M14; test: NCI tumour cell line growth inhibition, 48 h
Calls of active or inactive are those of the source. Cut-off read from the data, not from the text of the source: active = GI50 up to about 1.1 µM and inactive = higher.

query: Notebook: pull reported GI50 for M14, entry "N#CC1=C(N2CCOCC2)CCC1"
result: > 100 µM (inactive)

query: Notebook: pull reported GI50 for M14, entry "COc1cc(/C=C2\N=C(c3ccccc3)N(c3nc4ccccc4s3)C2=O)cc(OC)c1OC"
result: 31.4 µM (inactive)

query: Notebook: pull reported GI50 for M14, entry "N#CCc1nc(C#N)c(N)o1"
result: > 100 µM (inactive)

query: Notebook: pull reported GI50 for M14, entry COC1=CC2C(c3cc4ccccc4n3S(=O)(=O)c3ccccc3)CC1CN2C(=O)OCc1ccccc1 (stereo unspecified)
result: 19.6 µM (inactive)

query: Notebook: pull reported GI50 for M14, entry "O=C1c2ccccc2C(=O)c2c(OCCOCCO)cccc21"
result: > 100 µM (inactive)

query: Notebook: pull reported GI50 for M14, entry O=C(O)CSC(CC(=O)c1ccc(Cl)cc1)c1ccc(Cl)cc1 (stereo unspecified)
result: 42.1 µM (inactive)

query: Notebook: pull reported GI50 for M14, entry "Cc1cc2nc3c(C#N)c(C)c(CCCl)c(Cl)n3c2cc1C"
result: 2.27 µM (inactive)

----------
system: NCI-H226; experiment: NCI tumour cell line growth inhibition, 48 h
Calls of active or inactive are those of the source. No stated cut-off is given here; in the data, active = GI50 up to about 1.1 µM and inactive = higher. Square brackets hold non-standard residues; d marks the D form. Peptide text beside a SMILES is read from it. Phe(4-Cl) = N[CH](Cc1ccc(Cl)cc1)C(=O)O; 2Nal = N[CH](Cc1ccc2ccccc2c1)C(=O)O; 3Pal = N[CH](Cc1cccnc1)C(=O)O
Hi! Could you answer with just one of these? YES (active), NO (inactive)

Worked cases, answers included:
- OCCCc1ccc2c(c1)[C@H](CO)[C@@H](c1ccc(O)cc1)O2: NO
- C1=CC2CCC1CN2CCC1CNc2ccccc21 (configuration not stated): NO
- S=C1c2ccccc2N=C(NC2CCCC2)C2CSCN12 (configuration not stated): NO
- COc1cc([C@H]2Oc3c(OC)cc(CCCO)cc3[C@@H]2CO)ccc1O [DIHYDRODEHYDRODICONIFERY ALCOHOL]: NO
- CNC1=CC(=O)C2=C(C1=O)[C@H]1CC[C@]3(C)C(=O)CC[C@H]3[C@@H]1CC2: NO

query: Please state the recorded outcome for this compound: COc1cc2c(c(OC)c1OC)C(=O)CC2N (configuration not stated)
result: NO

query: Please state the recorded outcome for this compound: CC(=O)NC(Cc1ccc2ccccc2c1)C(=O)NC(Cc1ccc(Cl)cc1)C(=O)NC(Cc1cccnc1)C(=O)NC(CO)C(=O)NC(Cc1ccc(O)cc1)C(=O)NC(CCCN=C(N)N)C(=O)NC(CC(C)C)C(=O)NC(CCCN=C(N)N)C(=O)N1CCCC1C(=O)NC(C)C(N)=O (configuration not stated) (Ac-[2Nal][Phe(4-Cl)][3Pal]SYRLRPA-NH2; configuration not given here)
result: NO

query: Please state the recorded outcome for this compound: "Cc1ccccc1C1=C/C(=C(\SS/C(C(=O)c2ccc(OCC(=O)O)c(Cl)c2Cl)=C2\C=C(c3ccccc3C)SS2)C(=O)c2ccc(OCC(=O)O)c(Cl)c2Cl)SS1"
result: NO

query: Please state the recorded outcome for this compound: COc1ccc(C(c2ccccc2)N2C(=O)CCC2C(=O)O)cc1OC (configuration not stated)
result: NO

query: Please state the recorded outcome for this compound: "O=C(O)CC(CC(=O)O)n1cccc1"
result: NO

query: Please state the recorded outcome for this compound: O=NN(CCCl)C(=O)NC1CCC(=O)NC1=O (configuration not stated)
result: NO

query: Please state the recorded outcome for this compound: CN1CCc2cc(N)cc3c2C1Cc1ccc2c(c1-3)OCO2 (configuration not stated)
result: NO

query: Please state the recorded outcome for this compound: CCC(C)SC1SCC2C(=O)N(C)C3(CC3C)C(=O)OCC(NC(=O)c3nc4ccccc4cc3O)C(=O)NC(C)C(=O)N(C)C1C(=O)N(C)C1(CC1C)C(=O)OCC(NC(=O)c1nc3ccccc3cc1O)C(=O)NC(C)C(=O)N2C (configuration not stated)
result: YES

query: Please state the recorded outcome for this compound: "Fc1ccc2c3c([nH]c2c1)CCN(Cc1ccccc1)C3"
result: NO
